- experiment-summary: pKa by half-neutralization technique in acetonitrile-water
- Format: physicochemical
- experimental-parameters: 70% (v/v) acetonitrile-water mixture; read-out: Averaged pKa value from half neutralization method in 70% (v/v) acetonitrile-water
- Description: The final volume of the solutions is 5 mL. The averaged pKa values from duplicate measurements are reported, and used for analysis. It should be noted that the pKa values determined this way are not corrected for the change in the autoprotolysis constant of the solution due to mix solvent system.
For each of the molecules below, state its pKa.
Give bare numbers.

OB1OCc2ccccc21 [Compound 2A] : 10.2

In the following, a different molecule is considered.
Which pKa value belongs to O=C1c2ccccc2C(=O)c2c(SO)cccc21 [Compound 1, anthraquinone-1-sulfenic acid, reference compound] ?
8.6
